System: A673/TR/shEF
method: cell viability (LOESS-normalised, relative to median of negative controls) (log2 ratio); higher = more viable cells (less compound effect), active = hit call of the paper (over 3 MAD below the median)
protocol-conditions: 2.5 µM; library screen: screen2; EWS-FLI1 expression: low (doxycycline-induced shRNA knockdown); treatment time: 72 h
Out of some 3,200 compounds screened, about 300 (9.4%) showed activity. Many of the other results were omitted from the sample, so actives are more common in it than they were.
Each entry falls in a class defined on cell viability (log2); the bands are class 1 = under 0.05, class 2 = from 0.05 up to 0.1, class 3 = 0.1 and over

[[record]]
compound = "N#CC(C#N)=C(N)/C(C#N)=C/c1cc(O)c(O)c(O)c1"
qualitative_label = "class 2"

[[record]]
compound = "N[C@@H](CCC(=O)O)C(=O)O"
qualitative_label = "class 3"

[[record]]
compound = "CCN(CC)CCCC(C)Nc1ccnc2cc(Cl)ccc12 (stereo unspecified)"
qualitative_label = "class 1"


## Input // return the class label for CNC(=O)c1cc2c(cn1)[nH]c1ccccc12
## Output class 2

## Input // return the class label for OC[C@H]1O[C@@H](n2cnc3c(NC4CCCC4)nc(Cl)nc32)[C@H](O)[C@@H]1O
## Output class 2

## Input // return the class label for CC12CCC(=O)C=C1CCC1C2C(O)CC2(C)C1CCC2(O)C(=O)COC(=O)CCC(=O)O (stereo unspecified)
## Output class 3

## Input // return the class label for O=C1Nc2ccc(I)cc2/C1=C/c1cc(Br)c(O)c(Br)c1
## Output class 3

## Input // return the class label for COc1ccccc1N(C(N)=O)c1nc(-c2cccnc2)nc2ccccc12
## Output class 2

## Input // return the class label for N#CC(C#N)=C(N)/C(C#N)=C/c1ccc(O)cc1
## Output class 1

## Input // return the class label for CC(C)(C)[C@]1(O)CCN2CC3c4ccccc4CCc4cccc(c43)[C@@H]2C1 (stereo partly specified)
## Output class 2

## Input // return the class label for N#C/C(=C\c1c[nH]c2ccccc12)C(=O)c1ccc(O)c(O)c1
## Output class 3

## Input // return the class label for CN(C)CCCN1c2ccccc2Sc2ccccc21
## Output class 1

## Input // return the class label for CO/N=C(\C(=O)N[C@@H]1C(=O)N2C(C(=O)O)=C(CSc3nc(=O)c(=O)[nH]n3C)CS[C@H]12)c1csc(N)n1
## Output class 3

## Input // return the class label for CCN(CC)CCCC(C)Nc1c2ccc(Cl)cc2nc2ccc(OC)cc12 (stereo unspecified)
## Output class 2

## Input // return the class label for CCCCCCCCCCCCCCCC(=O)NCC(COP(=O)([O-])OCC[N+](C)(C)C)OCC (stereo unspecified)
## Output class 1

## Input // return the class label for O=c1cc(O)cc(/C=C/c2ccc(O)c(O)c2)o1
## Output class 3

## Input // return the class label for C[C@H](Cc1ccccc1)Nc1ncnc2c1ncn2[C@@H]1O[C@H](CO)[C@H](O)C1O (stereo partly specified)
## Output class 3

## Input // return the class label for N#C/C(=C\c1ccc(O)c(O)c1)C(=O)c1ccc(O)c(O)c1
## Output class 1

## Input // return the class label for COc1ccc(Cl)cc1C(=O)NCCc1ccc(S(=O)(=O)NC(=O)NC2CCCCC2)cc1
## Output class 1

## Input // return the class label for CCn1cc(C(=O)O)c(=O)c2ccc(Cc3ccccc3)nc21
## Output class 3

## Input // return the class label for C[C@@H](NC(=O)/C(C#N)=C/c1ccc(O)c(O)c1)c1ccccc1
## Output class 1

## Input // return the class label for O=C(O)CCC(=O)OCC(NC(=O)C(Cl)Cl)C(O)c1ccc([N+](=O)[O-])cc1 (stereo unspecified)
## Output class 2

## Input // return the class label for CC(N)=NCCC[C@H](N)C(=O)O
## Output class 2

## Input // return the class label for N[C@@H](CC(=O)O)C(=O)O
## Output class 1

## Input // return the class label for NC1(C(=O)O)CCCCC1
## Output class 2

## Input // return the class label for O=C([O-])[O-].[Ca+2]
## Output class 2

Numbers sourced from the supplement of paper PMC6089552.
